Biological target: HIV-1 PR (Human immunodeficiency virus type 1 group M subtype B, UniProt P04585)
Assay: HIV-protease inhibitory activity assay (FRET peptide substrate)
Details: Test Example 1
experimental endpoint: log10 of IC50 (log10 of the value in nM)
Base-10 log of IC50, unit nM.

log10 of IC50 for HIV-1 PR (Human immunodeficiency virus type 1 group M subtype B, UniProt P04585) with input COc1ccc(S(=O)(=O)N(CC(C)C)CC(O)C(Cc2ccc(NCC3=C(c4sc5c(c4C(=O)O)CC(C)(C)CC5)CCOC3)cc2)NC(=O)OC2COC3(C)OCCC23)cc1 (stereo not shown) equals 0.49

The molecule COc1ccc(S(=O)(=O)N(CC(C)C)CC(O)C(Cc2ccc(N(C)Cc3cccnc3-c3sc4c(c3C(=O)O)CC(C)(C)CC4)cc2)NC(=O)OC2COC3(C)OCCC23)cc1 (stereo not shown) , when measured on HIV-1 PR (Human immunodeficiency virus type 1 group M subtype B, UniProt P04585), yielded log10 of IC50 of 0.49

For COc1ccc(S(=O)(=O)N(CC(C)C)CC(O)C(Cc2ccc(NCc3ccccc3-c3c(C(=O)O)n(Cc4ccccc4)c4ccc(OC)cc34)cc2)NC(=O)OC2COC3(C)OCCC23)cc1 (stereo not shown) on HIV-1 PR (Human immunodeficiency virus type 1 group M subtype B, UniProt P04585), measured log10 of IC50 was 0.32

Recorded log10 of IC50 for COc1ccc(S(=O)(=O)N(CC(C)C)CC(O)C(Cc2ccc(OCc3ccccc3-c3ccc4[nH]c(=O)c(-c5ccc(Oc6ccccc6)cc5)c(O)c4c3)cc2)NC(=O)OC2COC3(C)OCCC23)cc1 (stereo not shown) on HIV-1 PR (Human immunodeficiency virus type 1 group M subtype B, UniProt P04585) was 0.43

// log10 of IC50 (HIV-1 PR (Human immunodeficiency virus type 1 group M subtype B, UniProt P04585)) for COc1ccc(S(=O)(=O)N(CC(C)C)CC(O)C(Cc2ccc(OCC3CCN(c4ccc(-c5sc6c(c5C(=O)O)CC(C)(C)CC6)cc4)C3)cc2)NC(=O)OC2COC3(C)OCCC23)cc1 (stereo not shown) = 1.31

For COc1ccc(S(=O)(=O)N(CC(C)C)CC(O)C(Cc2ccc(NCC3=C(c4sc5c(c4C(=O)O)CC(C)(C)CC5)CCCCC3)cc2)NC(=O)OC2COC3(C)OCCC23)cc1 (stereo not shown) on HIV-1 PR (Human immunodeficiency virus type 1 group M subtype B, UniProt P04585), measured log10 of IC50 was 0.70

# lookup: COc1ccc(S(=O)(=O)N(CC(C)C)CC(O)C(Cc2ccc(NC3CCCc4c(-c5sc6c(c5C(=O)O)CC(C)(C)CC6)cccc43)cc2)NC(=O)OC2COC3(C)OCCC23)cc1 (stereo not shown) [Compound I-751] on HIV-1 PR (Human immunodeficiency virus type 1 group M subtype B, UniProt P04585), log10 of IC50 = 1.20

Bench note, HIV-1 PR (Human immunodeficiency virus type 1 group M subtype B, UniProt P04585): COc1ccc(S(=O)(=O)N(CC(C)C)CC(O)C(Cc2ccc(NCc3ccc(C)cc3C(=O)Nc3sc4c(c3C(=O)O)CC(C)(C)CC4)cc2)NC(=O)OC2COC3(C)OCCC23)cc1 (stereo not shown) , log10 of IC50 reads 0.60

Kindly note: HIV-1 PR (Human immunodeficiency virus type 1 group M subtype B, UniProt P04585), CC(C)CN(CC(O)C(Cc1ccc(OCc2cc(-c3ccc(F)cc3F)ccc2C(N)=O)cc1)NC(=O)OC1COC2(C)OCCC12)S(=O)(=O)c1ccc2ncsc2c1 (stereo not shown) , log10 of IC50 value reported: -0.09

Summary line: COc1ccc(S(=O)(=O)N(CC(C)C)CC(O)C(Cc2ccc(NCc3cc(C#N)ccc3-c3sc4c(c3C(=O)O)CC(C)(C)CC4)cc2)NC(=O)OC2COC3(C)OCCC23)cc1 (stereo not shown) , HIV-1 PR (Human immunodeficiency virus type 1 group M subtype B, UniProt P04585), reported log10 of IC50 = 0.45

Reported HIV-1 PR (Human immunodeficiency virus type 1 group M subtype B, UniProt P04585) log10 of IC50 for item COc1ccc(S(=O)(=O)N(CC(C)C)CC(O)C(Cc2ccc(N(C)CC3=C(c4sc5c(c4C(=O)O)CC(C)(C)CC5)CCC(F)(F)C3)cc2)NC(=O)OC2COC3OCCC23)cc1 (stereo not shown) was 0.77

Entry COc1ccc(S(=O)(=O)N(CC(C)C)CC(O)C(Cc2ccc(N3CCC(Cc4ccccc4-c4sc5c(c4C(=O)O)CC(C)(C)CC5)C3)cc2)NC(=O)OC2COC3(C)OCCC23)cc1 (stereo not shown) [Compound I-667] under HIV-1 PR (Human immunodeficiency virus type 1 group M subtype B, UniProt P04585) had log10 of IC50 of 0.90

HIV-1 PR (Human immunodeficiency virus type 1 group M subtype B, UniProt P04585) assay, molecule COc1ccc(S(=O)(=O)N(CC(C)C)CC(O)C(Cc2ccc(N(C)Cc3ccc(N4CCCCC4=O)cc3-c3sc4c(c3C(=O)O)CC(C)(C)CC4)cc2)NC(=O)OC2COC3(C)OCCC23)cc1 (stereo not shown) , recorded log10 of IC50 = 0.37

###

Assay: Evaluation of total body clearance (CLtot), intravenous administration
Format: in vivo, Sprague-Dawley (SD)
Details: rat (SD), intravenous administration 0.5-10 mg/kg; CLtot = dose/AUC
Experimental: Dose: Intravenous administration with designated doses was selected. (Doses were changed depending on compounds.) • 0.5-10 mg/kg (n=2-3) Preparation of dosing formulation: The dosing solution was prepared by dissolving in an adequate solvent. Administration method: The dosing solution was injected into the tail vein by a syringe with a needle Blood sampling: The blood was collected at the scheduled time and obtained the plasma. Plasma concentrations of the compound were measured by LC/MS/MS. […]
Form field: log10(rat_CLt) (one value per entry).
A value of 2 here means rat_CLt of 100 in mL/min/kg, since values are log10.

Some solved cases for reference:
COc1ccc(S(=O)(=O)N(CC(C)C)CC(O)C(Cc2ccc(NCc3cccc(-c4sc5c(c4C(=O)O)CC(C)(C)CC5)c3C)cc2)NC(=O)OC2COC3(C)OCCC23)cc1 (stereo not drawn)
-0.78
COc1ccc(S(=O)(=O)N(CC(C)C)CC(O)C(Cc2ccc(NCC3=C(c4sc5c(c4C(=O)O)CC(C)(C)CC5)CC(C)(C)C3)cc2)NC(=O)OC2COC3(C)OCCC23)cc1 (stereo not drawn)
0.05
COc1ccc(S(=O)(=O)N(CC(C)C)CC(O)C(Cc2ccc(NCC3CCCC3c3sc4c(c3C(=O)O)CC(C)(C)CC4)cc2)NC(=O)OC2COC3(C)OCCC23)cc1 (stereo not drawn) [Compound I-409]
-0.06

Record COc1ccc(S(=O)(=O)N(CC(C)C)CC(O)C(Cc2ccc(CN3CCc4c(-c5sc6c(c5C(=O)O)CC(C)(C)CC6)cccc43)cc2)NC(=O)OC2COC3(C)OCCC23)cc1 (stereo not drawn) , field log10(rat_CLt): 0.70

The reported log10(rat_CLt) of the molecule COc1ccc(S(=O)(=O)N(CC(C)C)CC(O)C(Cc2ccc(N(C)Cc3cc(N4CCCC4=O)ccc3-c3sc4c(c3C(=O)O)CC(C)(C)CC4)cc2)NC(=O)OC2COC3(C)OCCC23)cc1 (stereo not drawn) was -0.11

###

Entries and their IC50 values follow.
Target: HIV-1 PR (Human immunodeficiency virus type 1 group M subtype B, UniProt P04585)
Assay: HIV-protease inhibitory activity assay (FRET peptide substrate)
Settings: Test Example 1
Note: unit nM is implicit; provide only the numeric part.

Guide cases for IC50, answers given:
CCCCC1(Cc2ccc(COc3ccc(CC(NC(=O)OC4COC5(C)OCCC45)C(O)CN(CC(C)C)S(=O)(=O)c4ccc(OC)cc4)cc3)cc2)C(=O)N(c2ccccc2)N(c2ccccc2)C1=O (centres unmarked)
1.35
COc1ccc(S(=O)(=O)N(CC(C)C)CC(O)C(Cc2ccc(N(C)CC3=C(c4sc5c(c4C(=O)O)CC(C)(C)CC5)CCC3)cc2)NC(=O)OC2COC3(C)OCCC23)cc1 (centres unmarked)
4.4
COc1ccc(S(=O)(=O)N(CC(C)C)CC(O)C(Cc2ccc(Oc3ccc(-c4sc5c(c4C(=O)O)CC(C)(C)CC5)c(F)c3)cc2)NC(=O)OC2COC3OCCC23)cc1 (centres unmarked)
1.76
COc1ccc(S(=O)(=O)N(CC(C)C)CC(O)C(Cc2ccc(NCc3cc(-n4ccccc4=O)ccc3-c3sc4c(c3C(=O)O)CC(C)(C)CC4)cc2)NC(=O)OC2COC3(C)OCCC23)cc1 (centres unmarked)
1.86

Note: attention shifts to another entry.
For this compound ( COc1ccc(S(=O)(=O)N(CC(C)C)CC(O)C(Cc2ccc(N3CCC(Cc4ccccc4-c4sc5c(c4C(=O)O)CC(C)(C)CC5)C3)cc2)NC(=O)OC2COC3(C)OCCC23)cc1 (centres unmarked) [Compound I-668] ), measured IC50 is 7.06

Measured values drawn from patent US20170253607A1 for this set.
